meta.source: ChEMBL document CHEMBL2086280

Tested on: K562
test: Cytotoxicity against human K562 cells after 6 days by MTS assay
condition-set: K562, 144 h
Each item that follows carries a reported IC50.

- compound: "CC(=O)OC[C@H](C)CC[C@H](OC(C)=O)[C@@H](C)[C@H]1[C@@H](OC(C)=O)C[C@H]2[C@@H]3CC=C4C[C@@H](OC(C)=O)CC[C@]4(C)[C@H]3CC[C@]12C"
  IC50: "4.5 µg/mL"
- compound: "CC(C)[C@H](O)[C@H](O)C[C@@H](C)[C@H]1[C@@H](O)C[C@H]2[C@@H]3CC(=O)[C@H]4C[C@@H](O)CC[C@]4(C)[C@H]3CC[C@]12C"
  IC50: "5 µg/mL"
- compound: "C[C@H](CC[C@H](O)[C@@H](C)[C@H]1[C@@H](O)C[C@H]2[C@@H]3CC=C4C[C@@H](O[C@@H]5O[C@H](CO)[C@@H](O)[C@H](O)[C@H]5O)CC[C@]4(C)[C@H]3[C@H](O)C[C@]12C)CO[C@@H]1O[C@H](CO)[C@@H](O)[C@H](O)[C@H]1O [HELOSIDE A]"
  IC50: "> 50 µg/mL"
- compound: "CC(C)[C@H](O)[C@H](O)C[C@@H](C)[C@H]1[C@@H](O)C[C@H]2[C@@H]3CC(=O)[C@H]4C[C@@H](O[C@@H]5O[C@H](CO[C@@H]6O[C@H](CO)[C@@H](O)[C@H](O)[C@H]6O)[C@@H](O)[C@H](O)[C@H]5O)CC[C@]4(C)[C@H]3CC[C@]12C"
  IC50: "> 50 µg/mL"

* * *

Measured IC50, listed per entry for reference.
Tested on: NFF
test: Cytotoxicity against human NFF cells after 6 days by SRB assay
Type: cell-based
condition-set: 144 h
measurement-label: IC50

- compound: "CC(C)[C@H](O)[C@H](O)C[C@@H](C)[C@H]1[C@@H](O)C[C@H]2[C@@H]3C[C@@H](O)[C@H]4C[C@@H](O[C@@H]5O[C@H](CO[C@@H]6O[C@H](CO)[C@@H](O)[C@H](O)[C@H]6O)[C@@H](O)[C@H](O)[C@H]5O)CC[C@]4(C)[C@H]3CC[C@]12C [CHAMAELIROSIDE A]"
  measurement-label: "IC50"
  reported-measurement: "> 50 µg/mL"
- compound: "C[C@@H]1CC[C@@]2(OC1)O[C@H]1C[C@H]3[C@@H]4CC=C5C[C@@H](O)CC[C@]5(C)[C@H]4CC[C@]3(C)[C@H]1[C@@H]2C"
  measurement-label: "IC50"
  reported-measurement: "> 50 µg/mL"
- compound: "CC(C)[C@H](O[C@@H]1O[C@H](C)[C@H](O)[C@H](O)[C@H]1O)[C@H](O)C[C@@H](C)[C@H]1[C@@H](O)C[C@H]2[C@@H]3CC(=O)[C@H]4C[C@@H](O[C@@H]5O[C@H](CO[C@@H]6O[C@H](CO)[C@@H](O)[C@H](O)[C@H]6O)[C@@H](O)[C@H](O)[C@H]5O)CC[C@]4(C)[C@H]3CC[C@]12C"
  measurement-label: "IC50"
  reported-measurement: "> 50 µg/mL"
- compound: "C[C@@H](CO)CC[C@H](O)[C@@H](C)[C@H]1[C@@H](O)C[C@H]2[C@@H]3CC=C4C[C@@H](O)CC[C@]4(C)[C@H]3[C@H](O)C[C@]12C"
  measurement-label: "IC50"
  reported-measurement: "> 50 µg/mL"
- compound: "CC(=O)O[C@@H]1[C@H](O)[C@@H](O)[C@H](O[C@@H](C(C)C)[C@H](O)C[C@@H](C)[C@H]2[C@@H](O)C[C@H]3[C@@H]4C[C@@H](O)[C@H]5C[C@@H](O[C@@H]6O[C@H](CO[C@@H]7O[C@H](CO)[C@@H](O)[C@H](O)[C@H]7O)[C@@H](O)[C@H](O)[C@H]6O)CC[C@]5(C)[C@H]4CC[C@]23C)O[C@@H]1C [CHAMAELIROSIDE C]"
  measurement-label: "IC50"
  reported-measurement: "> 50 µg/mL"
- compound: "CC(C)[C@H](O)[C@H](O)C[C@@H](C)[C@H]1[C@@H](O)C[C@H]2[C@@H]3CC(=O)[C@H]4C[C@@H](O)CC[C@]4(C)[C@H]3CC[C@]12C"
  measurement-label: "IC50"
  reported-measurement: "17 µg/mL"
- compound: "C[C@@H](CO)CC[C@H](O)[C@@H](C)[C@H]1[C@@H](O)C[C@H]2[C@@H]3CC=C4C[C@@H](O)CC[C@]4(C)[C@H]3CC[C@]12C"
  measurement-label: "IC50"
  reported-measurement: "> 50 µg/mL"
- compound: "CC(=O)O[C@H]1CC[C@@]2(C)C(=CC[C@H]3[C@@H]4C[C@H](OC(C)=O)[C@H]([C@H](C)C(=O)CC[C@@H](C)CO)[C@@]4(C)CC[C@@H]32)C1"
  measurement-label: "IC50"
  reported-measurement: "2 µg/mL"
